meta.source: ChEMBL document CHEMBL1158609

- System: Staphylococcus aureus
- Test name: Antimicrobial activity against methicillin-resistant Staphylococcus aureus
- Format: functional
Each item that follows carries a reported MIC.
Entry format: amount then unit.

Please review the following examples before continuing.
>>> value("Brc1ccc2[nH]cc(-c3nc(-c4ccccc4)c(-c4ccccc4)[nH]3)c2c1")
"4 µg/mL"
>>> value("Cc1[nH]c2ccccc2c1-c1nc(-c2ccc(F)cc2)c(-c2ccc(F)cc2)[nH]1")
"4 µg/mL"
>>> value("Cc1[nH]c2ccccc2c1-c1nc(-c2ccc(Cl)cc2)c(-c2ccc(Cl)cc2)[nH]1")
"4 µg/mL"
>>> value("Cc1ccc(-c2nc(-c3c[nH]c4ccc(Br)cc34)[nH]c2-c2ccccc2)cc1")
"2 µg/mL"

Then this molecule:
Name the reported MIC value associated with the molecule Fc1ccc(-c2nc(-c3c[nH]c4ccc(Br)cc34)[nH]c2-c2ccc(F)cc2)cc1 1 µg/mL
